Reported ED50 values for the following molecules.
tested on: Sarcoma 180; experiment: Comparison of activities of antitumor agents on Sarcoma 180 in mice (50% tumor regression); type: in vivo; details: Mus musculus

{"molecule": "O=c1[nH]c(=O)n([C@H]2C[C@H](OCc3ccccc3)[C@@H](CO)O2)cc1C(F)(F)F", "ED50 / mg/kg": 14}
{"molecule": "O=c1[nH]c(=O)n(C2CCCO2)cc1F (stereo not shown)", "ED50 / mg/kg": 120}
